System: OVCAR-5
Assay: NCI tumour cell line growth inhibition, 48 h
The source made the active and inactive calls. Rule as the data show it: active = GI50 up to about 1.1 µM and inactive = higher.
measured_endpoint: GI50

molecule	reading
COc1ccc(N[S+]([O-])CCCc2ccccc2)cc1 (stereo not given)	> 100 µM (inactive)
COC(=O)c1ccc(Oc2nc3ccc(C(F)(F)F)cc3nc2-c2ccccc2)cc1	> 100 µM (inactive)

Hey, OVCAR-5 data for `COC(=O)NN=C1C(C)(C)C(=NNC(=O)OC)C1(C)C` : GI50 came out at > 100 µM (inactive)

GI50 on OVCAR-5 for `COc1ccc2c(c1)CN([C@@H](C)[C@H]1CC[C@H]3[C@@H]4CC[C@H]5C[C@@H](O)CC[C@]5(C)[C@H]4CC[C@]13C)CO2` is 3.13 µM (inactive)

Param item: CCc1ccc(Cc2ccc(CC)c(NC(=O)C(=O)C3NC(=S)NC3=O)c2CC)c(CC)c1NC(=O)C(=O)C1NC(=S)NC1=O (stereo not given) ; param system: OVCAR-5; output GI50: > 100 µM (inactive)

// GI50 (OVCAR-5) for `Cc1ccc(-n2cnc3c(N/N=C4\SCC(=O)N4c4ccccc4)ncnc32)cc1` = 12.2 µM (inactive)

Item `N#Cc1cnn2c1n[n+]([O-])c1ccc(Cl)cc12` was tested on OVCAR-5; the reported GI50 is > 45.1 µM (inactive)

Field GI50 (system: OVCAR-5) for entry `O=C(CCc1ccc(O)cc1)NCCCNC(=O)CCc1ccc(O)cc1` = > 100 µM (inactive)

Form: item `S=C(N/N=C\c1ccccn1)N(Cc1ccccn1)Cc1ccccn1` ; test system OVCAR-5; GI50: 13 µM (inactive)

GET /values?item= `COc1ccc(/C=C(\Cl)c2ccc(OC)c(OC)c2)cc1OC` &system= OVCAR-5 returns GI50: > 100 µM (inactive)

Entry `Cc1ccc(C2=[N+]([O-])c3ccccc3C2=O)cc1` , tested on OVCAR-5, has a reported GI50 of 52.6 µM (inactive)

###

System: K562
Assay: NCI tumour cell line growth inhibition, 48 h
Activity calls are given as the source filed them. No stated cut-off is given here; in the data, active = GI50 up to about 1.1 µM and inactive = higher.
Just give me one of these, please: active, inactive

Illustrative cases are given below, each with its answer.
molecule	assigned_label
Cc1c(C(=O)C/C(=N/NC(=O)C[N+](C)(C)C)C(=O)Nc2ccc(Cl)cc2)[n+]([O-])c2ccccc2[n+]1[O-]	inactive
O=C(C[C@@H]1NCCC[C@H]1O)Cn1cnc2cc(Br)c(Cl)cc2c1=O	active
CCC12C[N+]3([O-])CCc4c([nH]c5ccccc45)C(C(=O)OC)(c4cc5c(cc4OC)N(C)C4C(O)(C(=O)OC)C(OC(C)=O)C6(CC)C=CCN7CCC54C76)CC(C3)C1O2 (stereo not drawn)	active

From here, focus on the item given below.
Query: So what was the verdict on `Cc1cc2nc(N3C(=O)/C(=C/c4cccc([N+](=O)[O-])c4)N=C3c3ccccc3)sc2cc1C` in this test?
Result: inactive

###

System: HCT-15
Test: NCI tumour cell line growth inhibition, 48 h
Property: GI50; scope: individual compounds
All answers are understood in µM, so give the number only.

Here are 2 compounds together with their reported answers.
compound	scale_unit	GI50
N#Cc1cnn2c1n[n+]([O-])c1ccc(Cl)cc12	µM	1.97
OC(CC(CC(O)(C(F)(F)Cl)C(F)(F)Cl)=NNc1ccccc1)(C(F)(F)Cl)C(F)(F)Cl	µM	3.23

Lab book: GI50 of `COC(=O)c1c(C(=O)OC)c(C(c2ccccc2)c2ccccc2)n(-c2ccccc2)c1Cl` noted as 5.5

// GI50 value for O=C(Nc1nnc(-c2ccccc2)o1)C(SC(=S)N1CCOCC1)c1ccccc1 (centres undefined) : 5.43

Note to self: GI50 recorded for COC(=O)C1C=CN(N(C)C)C2=C1C(=O)c1c(O)cccc1C2=O (centres undefined) was 1.51

Data provenance: ChEMBL document CHEMBL1201862
